# assayMethodText: Plasma pharmacokinetics in cynomolgus monkeys
# Type: in vivo
# runConditions: cynomolgus monkey, 3 mg/kg, after oral administration
resultType: Tmax (h)
Return type: number; implicit unit h.

Value of Tmax reported for the compound CC(C)(CN1CCC(=C2c3ccc(F)cc3COc3ccccc32)CC1)C(=O)O [Compound 49a] is 1.5

---

# targetOrTestSystem: M1 muscarinic receptor (Homo sapiens)
# Sequence (P11229 whole entry): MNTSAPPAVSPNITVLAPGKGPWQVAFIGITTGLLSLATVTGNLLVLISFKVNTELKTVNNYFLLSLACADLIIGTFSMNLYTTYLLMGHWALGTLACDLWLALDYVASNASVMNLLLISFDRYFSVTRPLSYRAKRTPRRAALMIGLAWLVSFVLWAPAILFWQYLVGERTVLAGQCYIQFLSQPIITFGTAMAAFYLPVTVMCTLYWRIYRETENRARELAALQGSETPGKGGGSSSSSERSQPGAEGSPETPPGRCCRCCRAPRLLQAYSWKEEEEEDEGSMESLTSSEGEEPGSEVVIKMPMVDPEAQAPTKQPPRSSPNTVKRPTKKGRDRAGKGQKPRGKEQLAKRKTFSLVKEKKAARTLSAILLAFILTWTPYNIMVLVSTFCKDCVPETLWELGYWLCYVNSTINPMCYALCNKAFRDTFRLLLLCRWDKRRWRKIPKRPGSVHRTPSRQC
# assayMethodText: Muscarinic M1 binding assay ([3H]-scopolamine, N-methyl chloride)
# Design: purchased PerkinElmer, Inc., Wellesley, Mass; host or cells: CHO cells
# runConditions: read-out: Ki M1
resultType: Ki

>>> df
                                   molecule  testresult
0  CC(C)(CN1CCC(=C2c3ccc(Cl)cc3COc3ccccc32)CC1)C(=O)O [Compound 51a]     > 10 µM
1  O=C(O)CN1CCC(=C2c3ccccc3COc3ccccc32)CC1 [Compound 71e]     12.1 µM
2  CC(C)(CN1CCC(=C2c3ccc(F)cc3COc3ccccc32)CC1)C(=O)O [Compound 49a]     > 10 µM
3  COc1ccc2c(c1)C(=C1CCN(CCC3(C(=O)O)CC3)CC1)c1ccccc1CO2 [Compound 67b]     > 10 µM
4  CCC(CC)(CN1CCC(=C2c3ccc(F)cc3COc3ccccc32)CC1)C(=O)O [Compound 49c]     > 10 µM

COc1ccc2c(c1)COc1ccccc1C2=C1CCN(CC2(C(=O)O)CC2)CC1 [Compound 50b] tested on M1 muscarinic receptor (Homo sapiens) gave Ki: > 10 µM
